Exercise: for every item that follows, state its recorded cytotoxicity at 24 h, 50 μg/mL.
Assay: LDH cytotoxic activity assay, HT29
Format: cell-based
Details: human, HT29 cells, HT29, 50 μg/mL
Numbers only, in %.

Below are worked cases with known answers.
Cc1ccc(-c2cc(-c3ccncc3)nc(N[C@@H]3O[C@H](CO)[C@@H](O)[C@H](O)[C@H]3O)n2)cc1; 40.9
CC(=O)OC[C@H]1O[C@@H](Nc2nc(-c3ccc(C)cc3)cc(-c3ccccn3)n2)[C@H](OC(C)=O)[C@@H](OC(C)=O)[C@@H]1OC(C)=O; 34.4
CC(=O)OC[C@H]1O[C@@H](Nc2nc(-c3ccncc3)cc(-c3cccc(C)c3)n2)[C@H](OC(C)=O)[C@@H](OC(C)=O)[C@@H]1OC(C)=O; 45

Fill in cytotoxicity at 24 h, 50 μg/mL for each of the 3 compounds listed.
1. CC(=O)OC[C@H]1O[C@@H](Nc2nc(-c3cccnc3)cc(-c3ccccc3C)n2)[C@H](OC(C)=O)[C@@H](OC(C)=O)[C@@H]1OC(C)=O
2. Cc1ccccc1-c1cc(-c2ccncc2)nc(N[C@@H]2O[C@H](CO)[C@@H](O)[C@H](O)[C@H]2O)n1
3. Cc1ccccc1-c1cc(-c2ccccn2)nc(N[C@@H]2O[C@H](CO)[C@@H](O)[C@H](O)[C@H]2O)n1

[A]
1: 49.3; 2: 49.9; 3: 48
